// data source = the supplement of paper PMC5998384

- System: HeLa Kyoto;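 also: synchronized HeLa Kyoto cells, proteins quantified by TMT10plex mass spectrometry, three biological replicates, mitosis taken 0.5 h after nocodazole release, G1/S directly after double thymidine block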
- Experiment description: thermal stability score vs G1/S (z-score of summed log2 fold changes over temperatures); higher = more thermally stable than in G1/S
- Condition set: cell cycle stage: early G1 (4.5 h after nocodazole release)
Quantity kind: thermal stability score

The cases that follow already have their thermal stability score on record.
MAAAAMAAAAGGGAGAARSLSRFRGCLAGALLGDCVGSFYEAHDTVDLTSVLRHVQSLEPDPGTPGSERTEALYYTDDTAMARALVQSLLAKEAFDEVDMAHRFAQEYKKDPDRGYGAGVVTVFKKLLNPKCRDVFEPARAQFNGKGSYGNGGAMRVAGISLAYSSVQDVQKFARLSAQLTHASSLGYNGAILQALAVHLALQGESSSEHFLKQLLGHMEDLEGDAQSVLDARELGMEERPYSSRLKKIGELLDQASVTREEVVSELGNGIAAFESVPTAIYCFLRCMEPDPEIPSAFNSLQRTLIYSISLGGDTDTIATMAGAIAGAYYGMDQVPESWQQSCEGYEETDILAQSLHRVFQKS [ADPRHL2] | 0.365
MAVKKIAIFGATGQTGLTTLAQAVQAGYEVTVLVRDSSRLPSEGPRPAHVVVGDVLQAADVDKTVAGQDAVIVLLGTRNDLSPTTVMSEGARNIVAAMKAHGVDKVVACTSAFLLWDPTKVPPRLQAVTDDHIRMHKVLRESGLKYVAVMPPHIGDQPLTGAYTVTLDGRGPSRVISKHDLGHFMLRCLTTDEYDGHSTYPSHQYQ [BLVRB] | 4.14
MERASLIQKAKLAEQAERYEDMAAFMKGAVEKGEELSCEERNLLSVAYKNVVGGQRAAWRVLSSIEQKSNEEGSEEKGPEVREYREKVETELQGVCDTVLGLLDSHLIKEAGDAESRVFYLKMKGDYYRYLAEVATGDDKKRIIDSARSAYQEAMDISKKEMPPTNPIRLGLALNFSVFHYEIANSPEEAISLAKTTFDEAMADLHTLSEDSYKDSTLIMQLLRDNLTLWTADNAGEEGGEAPQEPQS [SFN] | -2.86
MCAARLAAAAAAAQSVYAFSARPLAGGEPVSLGSLRGKVLLIENVASLUGTTVRDYTQMNELQRRLGPRGLVVLGFPCNQFGHQENAKNEEILNSLKYVRPGGGFEPNFMLFEKCEVNGAGAHPLFAFLREALPAPSDDATALMTDPKLITWSPVCRNDVAWNFEKFLVGPDGVPLRRYSRRFQTIDIEPDIEALLSQGPSCA [GPX1] | 1.13
MSAPFEERSGVVPCGTPWGQWYQTLEEVFIEVQVPPGTRAQDIQCGLQSRHVALSVGGREILKGKLFDSTIADEGTWTLEDRKMVRIVLTKTKRDAANCWTSLLESEYAADPWVQDQMQRKLTLERFQKENPGFDFSGAEISGNYTKGGPDFSNLEK [NUDCD2] | 1.01
MSAPLDAALHALQEEQARLKMRLWDLQQLRKELGDSPKDKVPFSVPKIPLVFRGHTQQDPEVPKSLVSNLRIHCPLLAGSALITFDDPKVAEQVLQQKEHTINMEECRLRVQVQPLELPMVTTIQMSSQLSGRRVLVTGFPASLRLSEEELLDKLEIFFGKTRNGGGDVDVRELLPGSVMLGFARDGVAQRLCQIGQFTVPLGGQQVPLRVSPYVNGEIQKAEIRSQPVPRSVLVLNIPDILDGPELHDVLEIHFQKPTRGGGEVEALTVVPQGQQGLAVFTSESG [IFI35] | -1.43
MSDAAVDTSSEITTKDLKEKKEVVEEAENGRDAPANGNAENEENGEQEADNEVDEEEEEGGEEEEEEEEGDGEEEDGDEDEEAESATGKRAAEDDEDDDVDTKKQKTDEDD [PTMA] | -0.717
MSGWADERGGEGDGRIYVGNLPTDVREKDLEDLFYKYGRIREIELKNRHGLVPFAFVRFEDPRDAEDAIYGRNGYDYGQCRLRVEFPRTYGGRGGWPRGGRNGPPTRRSDFRVLVSGLPPSGSWQDLKDHMREAGDVCYADVQKDGVGMVEYLRKEDMEYALRKLDDTKFRSHEGETSYIRVYPERSTSYGYSRSRSGSRGRDSPYQSRGSPHYFSPFRPY [SRSF9] | -3.88

Parameter requested: thermal stability score. Apply to each item below.
1. MATSRYEPVAEIGVGAYGTVYKARDPHSGHFVALKSVRVPNGGGGGGGLPISTVREVALLRRLEAFEHPNVVRLMDVCATSRTDREIKVTLVFEHVDQDLRTYLDKAPPPGLPAETIKDLMRQFLRGLDFLHANCIVHRDLKPENILVTSGGTVKLADFGLARIYSYQMALTPVVVTLWYRAPEVLLQSTYATPVDMWSVGCIFAEMFRRKPLFCGNSEADQLGKIFDLIGLPPEDDWPRDVSLPRGAFPPRGPRPVQSVVPEMEESGAQLLLEMLTFNPHKRISAFRALQHSYLHKDEGNPE [CDK4]
2. MTLQWAAVATFLYAEIGLILIFCLPFIPPQRWQKIFSFNVWGKIATFWNKAFLTIIILLIVLFLDAVREVRKYSSVHTIEKSSTSRPDAYEHTQMKLFRSQRNLYISGFSLFFWLVLRRLVTLITQLAKELSNKGVLKTQAENTNKAAKKFMEENEKLKRILKSHGKDEECVLEAENKKLVEDQEKLKTELRKTSDALSKAQNDVMEMKMQSERLSKEYDQLLKEHSELQDRLERGNKKRL [BCAP29]
3. MAAQQRDCGGAAQLAGPAAEADPLGRFTCPVCLEVYEKPVQVPCGHVFCSACLQECLKPKKPVCGVCRSALAPGVRAVELERQIESTETSCHGCRKNFFLSKIRSHVATCSKYQNYIMEGVKATIKDASLQPRNVPNRYTFPCPYCPEKNFDQEGLVEHCKLFHSTDTKSVVCPICASMPWGDPNYRSANFREHIQRRHRFSYDTFVDYDVDEEDMMNQVLQRSIIDQ [RNF114]
4. MASSNTVLMRLVASAYSIAQKAGMIVRRVIAEGDLGIVEKTCATDLQTKADRLAQMSICSSLARKFPKLTIIGEEDLPSEEVDQELIEDSQWEEILKQPCPSQYSAIKEEDLVVWVDPLDGTKEYTEGLLDNVTVLIGIAYEGKAIAGVINQPYYNYEAGPDAVLGRTIWGVLGLGAFGFQLKEVPAGKHIITTTRSHSNKLVTDCVAAMNPDAVLRVGGAGNKIIQLIEGKASAYVFASPGCKKWDTCAPEVILHAVGGKLTDIHGNVLQYHKDVKHMNSAGVLATLRNYDYYASRVPESIKNALVP [BPNT1]

1. 0.0522
2. -4.11
3. -2.47
4. -0.366
